// provenance: PubChem BioAssay (NCI)

Test system: SK-OV-3 ovarian
Method: NCI tumour cell line growth inhibition, 48 h
Measurement kind: GI50

{"Molecule": "COC1=CC(c2ccc[nH]2)=N/C1=C\\c1[nH]c(C)c(C)c1CCC(=O)OCc1ccccc1", "Assay result": "1.79 µM"}

*Q* For the record CCCCCCn1c2c(c3c(O)cccc31)C(=O)c1ccccc1-2 , what value of GI50 is listed for SK-OV-3 ovarian?
*A* 36.3 µM

*Q* So what GI50 did CN1CCN(Cn2nc(-c3cc(F)c(Cl)cc3Cl)oc2=S)CC1 get with SK-OV-3 ovarian?
*A* 56.9 µM

---

Test system: MCF7 breast
Method: NCI tumour cell line growth inhibition, 48 h
Measurement kind: TGI (µM)
State the answer as a number, implicitly in µM.

{"Structure smiles string": "CN(C)CCNC(=O)c1cccc2[nH]c(-c3ccc(Cl)cc3)nc12", "Assay result": 15.8}

Consider the additional compound presented here.
*Q* Field request: TGI | item: O=C(c1ccccc1)c1c2n(c3c1cc(O)c1ccccc13)CCN2
*A* 3.87

---

// TGI lookup, one value per entry
Test system: HS 578T breast
Method: NCI tumour cell line growth inhibition, 48 h

{"Compound": "Cc1cc2nc3c4cc([N+](=O)[O-])ccc4n(CCN(C)C)c3nc2cc1C", "TGI": "5.87 µM"}
{"Compound": "COC(=O)[C@H](C)[C@@H]1CC[C@](C)(CCC2=C(C)CCCC2(C)C)OO1", "TGI": "> 25 µM"}
{"Compound": "Nc1nc(-c2ccc3ccccc3c2)cc(-c2cc(-c3ccc4ccccc4c3)nc(N)n2)n1", "TGI": "> 100 µM"}

*Q* Requested field: TGI. Item: ClCc1ccc(-c2ccc(Cn3cnc4c(Cl)ncnc43)cc2)cc1
*A* > 100 µM

*Q* Query (compound): CP(=O)(O)C(N)c1ccccc1 (centres undefined) ; field requested: TGI
*A* > 100 µM

*Q* GET /values?readout=TGI&item= CN(C)CCCN=c1c2ccccc2n(C)c2[nH]c(=O)n(C)c(=O)c12
*A* 52.6 µM

*Q* Tell me the measured TGI of O=[N+]([O-])c1cccc([I+]c2ccccc2)c1 , please.
*A* 68.2 µM

*Q* Any idea what its TGI is? The compound is O=C(O)C1C2CCC(O2)C1C(=O)NCc1cccnc1 (centres undefined)
*A* > 100 µM

*Q* What value of TGI has been reported for the following compound? CCN(CC)CCNC(=O)C(Cl)=C1C(Cl)=C(Cl)C(Cl)=C1Cl
*A* 25.3 µM

*Q* Return reported TGI; argument: CC1(C)OC2[C@@H](CO[C@@]3([C@H]4OC(C)(C)O[C@@H]4CO)OC(C)(C)O[C@@H]23)O1 (some centres undefined)
*A* > 100 µM

*Q* If you can, please state the reported TGI value of O=C1c2c(F)c(F)c(F)c(F)c2SC2=Nc3cccc4cccc(c34)N12 .
*A* 7.73 µM

*Q* Item under review: Cc1ccc(Cc2n[nH]c(=O)n2N2C(=O)c3ccccc3C2=O)cc1 . Reported TGI?
*A* > 100 µM

---

Tested on: T-47D breast
Method: NCI tumour cell line growth inhibition, 48 h
Catalogue of molecules with associated TGI

{"Molecule": "COc1ccc2c(c1)C(=O)c1c-2c(OCCN2CCCCC2)nc2ccc(OC)cc12", "Measurement kind": "TGI", "Assay result": "25.8 µM"}
{"Molecule": "CP(=O)(O)C(N)c1ccccc1 (stereo unspecified)", "Measurement kind": "TGI", "Assay result": "> 100 µM"}
{"Molecule": "CN1CCN(Cn2nc(-c3cc(F)c(Cl)cc3Cl)oc2=S)CC1", "Measurement kind": "TGI", "Assay result": "27 µM"}

*Q* Quick check: TGI of O=C(NC(Cc1ccccc1)C(=O)CCl)OCc1ccccc1 (stereo unspecified) ?
*A* 16.7 µM

*Q* Can you share its TGI? I mean this molecule: CC/C(=C(/CC)c1ccc(O)cc1)c1ccc(O)cc1
*A* 47 µM

*Q* State the recorded TGI for this entry: COC(=O)C1CCCN1C(=O)OC(C)(C)C (stereo unspecified)
*A* > 100 µM
